- MEASUREMENT DESCRIPTION: chemical genetic growth profiling, strain panel (AID 1159580);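 note: tested at 20 µM; growth read once vehicle control cultures reached saturation at 30 °C; 1 = growth at the plate median or of vehicle wells; lower values mean less growth of the strain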
- ASSAY CONDITIONS: S. cerevisiae deletion strains, growth OD, locus YER133W, strain GLC7, hits give low values
The campaign covered roughly 5,500 compounds. About 2,000 (36%) were called active. Another 18% or so got no clear call; they are omitted. Some of the results follow.
Reported normalized growth values for a set of compounds
In your answer, state the number alone without any accompanying words.

Consider the compound O=C1Nc2ccccc2/C1=N/N=C\c1ccccc1Cl and give its measured normalized growth. 0.928

Another compound: N#CCC(=O)c1cccc(CSc2ccccc2Cl)c1 0.639

Please do the same for Cc1csc2ncnc(N/N=C\c3ccccc3Cl)c12 as well. 0.967

Next: N=c1ccc2nc3c(Cl)c4c(c(Cl)c3oc-2c1S(=O)(=O)O)Nc1ccc(N)c(S(=O)(=O)O)c1O4 0.992

Next compound: CC(O)(CNCc1ccc(Cl)cc1)CSc1ccccc1Cl (stereo unspecified) 0.952

One more compound: Fc1ccc(N/N=C\Cc2nnnn2-c2ccccc2)c(F)c1 0.592
